assay: Cytotoxicity against KB cells; format: cell-based; settings: human, read-out: ED50 (the source's name)
Entries are sorted into classes by CC50 as follows: bin 1 (below 50 µg/mL), bin 2 (50 µg/mL to below 80 µg/mL), bin 3 (80 µg/mL or more)

query: Categorize the following entry: "COc1ccc(COc2c(OC)c(OC)cc3c2C(=O)[C@]2(OC)C=C[C@H]3N(C(=O)OC(C)C)N2C(=O)OC(C)C)cc1"
result: bin 1

query: State the class of the molecule shown: "COC(=O)N1[C@@H]2C=C[C@@](OC)(C(=O)c3c2cc(OC)c(OC)c3OCc2ccc(OC)cc2)N1C(=O)OC"
result: bin 3

query: Assign a category based on measured CC50 for "CCCCOc1c(OC)c(OC)cc2c1C(=O)[C@]1(OC)C=C[C@H]2N(C(=O)OCC)N1C(=O)OCC" and give only the class name.
result: bin 2

query: Which class does "CCCOc1c(OC)c(OC)cc2c1C(=O)[C@]1(OC)C=C[C@H]2N(C(=O)OC(C)C)N1C(=O)OC(C)C" fall in?
result: bin 3

query: In plain terms, what class is "COc1cc2c(c(OCc3ccccc3F)c1OC)C(=O)[C@]1(OC)C=C[C@H]2N(C(=O)OC(C)C)N1C(=O)OC(C)C" ?
result: bin 3

query: Which category does the recorded CC50 put "COC(=O)N1[C@@H]2C=C[C@@](OC)(C(=O)c3c2cc(OC)c(OC)c3OCc2ccc(F)cc2)N1C(=O)OC" in?
result: bin 2

query: State the class of the molecule shown: "COC(=O)N1[C@@H]2C=C[C@@](OC)(C(=O)c3c2cc(OC)c(OC)c3O)N1C(=O)OC"
result: bin 3

query: Entry "COc1cc2c(c(OCc3ccc(Cl)cc3)c1OC)C(=O)[C@]1(OC)C=C[C@H]2N(C(=O)OC(C)C)N1C(=O)OC(C)C" belongs to which category?
result: bin 1

query: For this molecule, which bin applies? "CCCOc1c(OC)c(OC)cc2c1C(=O)[C@]1(OC)C=C[C@H]2N(C(=O)OCC)N1C(=O)OCC"
result: bin 3

query: Note: place this molecule into its band. Item: "COC(=O)N1[C@@H]2C=C[C@@](OC)(C(=O)c3c2cc(OC)c(OC)c3OC)N1C(=O)OC"
result: bin 3

query: Category of "CCCOc1c(OC)c(OC)cc2c1C(=O)[C@]1(OC)C=C[C@H]2N(C(=O)OC)N1C(=O)OC" , please.
result: bin 3

query: GET /class?item= "COc1cc2c(c(OCc3ccccc3)c1OC)C(=O)[C@]1(OC)C=C[C@H]2N(C(=O)OC(C)C)N1C(=O)OC(C)C"
result: bin 3

query: Which class holds "CCOc1c(OC)c(OC)cc2c1C(=O)[C@]1(OC)C=C[C@H]2N(C(=O)OC(C)C)N1C(=O)OC(C)C" ?
result: bin 3

query: Kindly state the category for this molecule: "CCOC(=O)N1[C@@H]2C=C[C@@](OC)(C(=O)c3c2cc(OC)c(OC)c3OCc2ccc(F)cc2)N1C(=O)OCC"
result: bin 2

query: Into which bin does this molecule go? "CCCCOc1c(OC)c(OC)cc2c1C(=O)[C@]1(OC)C=C[C@H]2N(C(=O)OC(C)C)N1C(=O)OC(C)C"
result: bin 1

query: Determine which band this molecule sits in: "CCOC(=O)N1[C@@H]2C=C[C@@](OC)(C(=O)c3c2cc(OC)c(OC)c3OCc2ccc(OC)cc2)N1C(=O)OCC"
result: bin 2

* * *

test: Cytotoxicity against KB cells; assay type: cell-based; settings: human, read-out: ED50 (the source's name)
quantity_name: CC50 (µg/mL)
Numeric answer only, unit µg/mL assumed.

For reference, reported CC50 for "COC(=O)N1[C@@H]2C=C[C@@](OC)(C(=O)c3c2cc(OC)c(OC)c3OCc2ccccc2F)N1C(=O)OC" stands at 137

// recorded CC50 for "COC(=O)N1[C@@H]2C=C[C@@](OC)(C(=O)c3c2cc(OC)c(OC)c3OCc2ccc(Cl)cc2)N1C(=O)OC" : 55.9

Form: molecule = "CCOC(=O)N1[C@@H]2C=C[C@@](OC)(C(=O)c3c2cc(OC)c(OC)c3OCc2ccccc2)N1C(=O)OCC" ; CC50 = 215

Value of measured CC50 for the entry "CCOC(=O)N1[C@@H]2C=C[C@@](OC)(C(=O)c3c2cc(OC)c(OC)c3OCc2ccccc2F)N1C(=O)OCC" : 99.7

* * *

test: Cytotoxicity against KB cells; assay type: cell-based; details: human, read-out: ED50 (the source's name)
quantity_name: CC50

Recorded result, "CCOC(=O)N1[C@@H]2C=C[C@@](OC)(C(=O)c3c2cc(OC)c(OC)c3OCc2ccc(Cl)cc2)N1C(=O)OCC" , CC50: 99.9 µg/mL

Lab note: measured CC50 of "CCOC(=O)N1[C@@H]2C=C[C@@](OC)(C(=O)c3c2cc(OC)c(OC)c3OCC)N1C(=O)OCC" was > 300 µg/mL

For record "COc1cc2c(c(OC)c1OC)C(=O)[C@]1(OC)C=C[C@H]2N(C(=O)OC(C)C)N1C(=O)OC(C)C" the listed CC50 is > 300 µg/mL

Entry "COC(=O)N1[C@@H]2C=C[C@@](OC)(C(=O)c3c2cc(OC)c(OC)c3OCc2ccccc2)N1C(=O)OC" ; CC50 = > 300 µg/mL

* * *

experiment: Therapeutic index, ratio of IC50 for Trypanosoma cruzi to ED50 for KB cells; type: cell-based; conditions: human, read-out: TI
quantity_name: selectivity ratio
Respond using a number only.

Reported selectivity ratio of "COc1cc2c(c(OCc3ccc(Cl)cc3)c1OC)C(=O)[C@]1(OC)C=C[C@H]2N(C(=O)OC(C)C)N1C(=O)OC(C)C" : 37.6
